biological target: UniProt:Q12809; experiment: Inhibition of hERG by patch-clamp assay
Sequence (Q12809 whole entry): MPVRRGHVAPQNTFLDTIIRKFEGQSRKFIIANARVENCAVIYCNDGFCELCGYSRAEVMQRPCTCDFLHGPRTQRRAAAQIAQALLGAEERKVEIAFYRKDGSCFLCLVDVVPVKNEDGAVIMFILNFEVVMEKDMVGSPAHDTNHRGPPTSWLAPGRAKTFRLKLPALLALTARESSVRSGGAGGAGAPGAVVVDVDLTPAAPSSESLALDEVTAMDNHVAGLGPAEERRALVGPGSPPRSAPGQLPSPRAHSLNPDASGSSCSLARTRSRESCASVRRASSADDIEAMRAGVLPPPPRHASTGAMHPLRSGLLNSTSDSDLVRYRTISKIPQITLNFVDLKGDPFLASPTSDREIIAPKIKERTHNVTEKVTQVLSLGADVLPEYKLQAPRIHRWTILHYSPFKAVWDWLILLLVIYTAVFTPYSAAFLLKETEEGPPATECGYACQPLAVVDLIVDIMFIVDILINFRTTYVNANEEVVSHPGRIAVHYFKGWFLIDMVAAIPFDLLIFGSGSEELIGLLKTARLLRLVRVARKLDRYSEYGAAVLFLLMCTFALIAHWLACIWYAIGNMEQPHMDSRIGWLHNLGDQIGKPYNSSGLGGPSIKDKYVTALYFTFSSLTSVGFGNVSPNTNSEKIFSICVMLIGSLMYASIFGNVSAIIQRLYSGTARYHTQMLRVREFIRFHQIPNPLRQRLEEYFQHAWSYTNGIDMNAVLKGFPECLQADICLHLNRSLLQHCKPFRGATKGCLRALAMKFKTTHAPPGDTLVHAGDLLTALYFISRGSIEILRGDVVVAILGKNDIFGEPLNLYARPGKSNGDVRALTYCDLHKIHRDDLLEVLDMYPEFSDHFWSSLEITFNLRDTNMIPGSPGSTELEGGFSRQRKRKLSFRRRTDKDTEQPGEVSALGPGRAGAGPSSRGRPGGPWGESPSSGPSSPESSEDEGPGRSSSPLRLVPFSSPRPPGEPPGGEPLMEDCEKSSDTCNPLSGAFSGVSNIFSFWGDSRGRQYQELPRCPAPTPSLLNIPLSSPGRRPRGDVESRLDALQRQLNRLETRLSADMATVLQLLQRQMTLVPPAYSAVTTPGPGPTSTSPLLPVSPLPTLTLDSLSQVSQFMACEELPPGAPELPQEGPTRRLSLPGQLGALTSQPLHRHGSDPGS
Endpoint name: pIC50
Please treat pIC50 as minus the base-10 logarithm of the molar concentration.

// query Recorded pIC50 for "COc1cc(NC(=O)Cc2ccc(C(F)(F)F)cc2)ccc1C[C@H]1COC(=O)N1" , please?
// result 4.57

// query Sample "COc1nc(NC(=O)Cc2ccc(Cl)cc2)ccc1C[C@H]1COC(=O)N1" — what was its pIC50?
// result 4.80

// query Quick check: pIC50 of "COc1cc(NC(=O)Cc2ccc(Cl)cc2)ccc1C[C@H]1COC(=O)N1" ?
// result 4.70

---

assay: Unbound fraction in Wistar rat plasma at 1 mg/kg,iv or 10 mg/kg,po administration; type: ADME, organism-based
Endpoint name: fraction unbound
Lab note: write the figure by itself, no unit.

// query Which fraction unbound reading was recorded for the compound "COc1cc(NC(=O)Cc2ccc(C(F)(F)F)cc2)ccc1C[C@H]1COC(=O)N1" ?
// result 0.052

---

test: MRT in Wistar rat at 0.05 mg/kg,iv or 10 mg/kg,po administration; type: ADME, organism-based; conditions: in vivo
Would you mind telling me the reported MRT of each entry?
Expressed in min, but write only the number.

// query What does the data say about its MRT? Entry: "COc1cc(NC(=O)Cc2ccc(Br)cc2)ccc1C[C@H]1COC(=O)N1"
// result 54

// query What MRT value was documented for this molecule, "COc1cc(NC(=O)Cc2ccc(Cl)cc2Cl)ccc1C[C@H]1COC(=O)N1" ?
// result 42

---

test system: Human betaherpesvirus 5; assay: Antiviral activity against HCMV AD169 infected in human MRC5 cells assessed as reduction in viral replication incubated for 72 hrs in presence of 10 % serum by qRT-PCR analysis; format: functional, organism-based; details: Human betaherpesvirus 5, AD169, MRC5, 72 h
Endpoint name: EC50 (µM)
The answer is to be given in µM; state only the numeric part.

// query Which EC50 is reported for this molecule? "O=C1N[C@@H](Cc2ccc3c(c2)CCN(Cc2ccc(Cl)cc2)C3=O)CO1"
// result 44.2

// query Which EC50 is listed for "O=C(Nc1ccc(Cl)cc1)Nc1ccc(C[C@H]2COC(=O)N2)cc1" ?
// result 1.11

// query Which EC50 value belongs to "COc1cc(NC(=O)Cc2ccc(Cl)cc2)ncc1C[C@H]1COC(=O)N1" ?
// result 51.2

---

Give IC50 for every item shown.
assay: Inhibition of VZV DNA polymerase extracted from baculovirus infected Sf21 cells using Heterodimeric nucleic acid as substrate preincubated with enzyme for 30 mins followed by substrate and dATP addition measured after 60 mins by biotinylated UTP incorporation based AlphaLISA assay; parameters: species or system Human alphaherpesvirus 3
Number only, in nM; omit the unit.

// query // lookup IC50 for "COc1cc(NC(=O)Cc2ccc(Cl)cc2)c(C)cc1C[C@H]1COC(=O)N1"
// result 13900

// query Record request: IC50 value, item "O=C(Cc1ccc(Cl)cc1)Nc1ccc(Cc2ccccc2)cc1"
// result 67000

// query IC50 value for entry "COc1cc(NC(=O)Cc2c(F)cc(Cl)cc2F)ccc1C[C@H]1COC(=O)N1"
// result 46

// query Look up IC50: "O=C(Cc1ccc(Cl)cc1)Nc1ccc(C[C@H]2COC(=O)N2)cc1"
// result 180

// query Return reported IC50; argument: "COc1cc(NC(=O)Cc2ccc(C#N)c(F)c2)ccc1C[C@H]1COC(=O)N1"
// result 28

// query Which IC50 is listed for "COc1cc(NC(=O)Cc2ccc(OC(F)(F)F)cc2)ccc1C[C@H]1COC(=O)N1" ?
// result 1690

// query Name the recorded IC50 for "O=C1N[C@@H](Cc2ccc3c(c2)CCN(Cc2ccc(Cl)cc2)C3=O)CO1" .
// result 40300

// query Please look up its IC50: COc1cc(NC(=O)C2CCc3cc(Cl)ccc32)ccc1C[C@H]1COC(=O)N1 (stereo partly specified)
// result 20

// query So what does the record say about IC50 for "O=C1N[C@@H](Cc2ccc(NS(=O)(=O)Cc3ccc(Cl)cc3)cc2)CO1" ?
// result 12700

// query Give its IC50 value. Item: "O=C(Cc1ccc(Cl)cc1)Nc1cc(Cl)c(C[C@H]2COC(=O)N2)cn1"
// result 2870

// query # lookup: IC50 of O=C(Cc1ccc(Cl)cc1)Nc1ccc(CC2COC(=O)N2)cn1 (racemic)
// result 2110

// query What does the data say about its IC50? Entry: "CS(=O)(=O)c1cccc(Cc2ccc(NC(=O)Cc3ccc(Cl)cc3)cc2)c1"
// result 12500

// query For "O=C(Cc1ccc(Cl)cc1Cl)Nc1ccc(C[C@H]2COC(=O)N2)cc1" , what is its reported IC50?
// result 130

// query Item "O=C(Cc1ccc(Cl)cc1)Nc1cnc(C[C@H]2COC(=O)N2)cn1" has what recorded IC50?
// result 2090

// query Look up IC50: "C[C@H](c1ccc(NC(=O)Cc2ccc(Cl)cc2)cc1)[C@H]1COC(=O)N1"
// result 6500

// query Fill blank: measured IC50 of the compound "CC(=O)c1ccc(NC(=O)Cc2ccc(Cl)cc2)cc1" is ____.
// result 4800

// query Please give the measured IC50 for this compound: "COc1cc(NC(=O)Cc2ccc(Cl)c(F)c2)ccc1C[C@H]1COC(=O)N1"
// result 36

// query Would you kindly share the measured IC50 for "COc1nc(NC(=O)Cc2ccc(Cl)cc2)cnc1C[C@H]1COC(=O)N1" ?
// result 23800

// query Fill in: IC50 of "COc1cc(NC(=O)Cc2ccc(Cl)cc2)ncc1C[C@H]1COC(=O)N1" is ___
// result 6290

---

experiment: Metabolic stability in human liver microsomes assessed as intrinsic clearance; type: ADME, Microsome; conditions: read-out: CLH
Would you mind telling me the reported CLint scaled of each entry?

// query // lookup CLint scaled for "COc1cc(NC(=O)Cc2ccc(C(F)(F)F)cc2)ccc1C[C@H]1COC(=O)N1"
// result 20 mL/min/kg

// query Which CLint scaled reading was recorded for the compound COc1cc(NC(=O)C2CCc3cc(Cl)ccc32)ccc1C[C@H]1COC(=O)N1 (some centres not stated) ?
// result 63 mL/min/kg

// query Given "COc1cc(NC(=O)Cc2ccc(Cl)cc2)ccc1C[C@H]1COC(=O)N1" , state its recorded CLint scaled.
// result 16 mL/min/kg

// query If you can, please state the reported CLint scaled value of "COc1cc(NC(=O)Cc2ccc(Cl)cc2Cl)ccc1C[C@H]1COC(=O)N1" .
// result 20 mL/min/kg

// query What value of CLint scaled has been recorded for this entry: "CCOc1cc(NC(=O)Cc2ccc(Cl)cc2)ccc1C[C@H]1COC(=O)N1"
// result 29 mL/min/kg

// query Entry "COc1cc(NC(=O)Cc2ccc(Cl)cc2F)ccc1C[C@H]1COC(=O)N1" : reported CLint scaled = ?
// result 16 mL/min/kg

// query Which CLint scaled is listed for "COc1cc(NC(=O)Cc2ccc(Br)cc2)ccc1C[C@H]1COC(=O)N1" ?
// result < 16 mL/min/kg

---

experiment: Inhibition of VZV DNA polymerase extracted from baculovirus infected Sf21 cells using Heterodimeric nucleic acid as substrate preincubated with enzyme for 30 mins followed by substrate and dATP addition measured after 60 mins by biotinylated UTP incorporation based AlphaLISA assay; set-up: species or system Human alphaherpesvirus 3
Assign labels as follows, please: Satisfied for IC50 below 8 µM; Not satisfied for IC50 equal to or exceeding 8 µM.

// query Hi there! Is IC50 for "O=C(Cc1ccc(Cl)cc1)Nc1ccc(Cn2cncn2)cc1" below 8 µM, do you know?
// result Satisfied

// query Please let me know if "CCOc1cc(NC(=O)Cc2ccc(Cl)cc2)ccc1C[C@H]1COC(=O)N1" shows IC50 below 8 µM.
// result Satisfied

// query Lab note: confirm whether the reported IC50 for this compound is below 8 µM, equality not counting. compound: "COc1cc(NC(=O)Cc2ccc(Cl)cc2Cl)ccc1C[C@H]1COC(=O)N1"
// result Satisfied

// query Consider the compound "O=C(Cc1ccc(Cl)cc1)Nc1ccc(CC(F)(F)F)cc1" . Is its IC50 strictly less than 8 µM?
// result Not satisfied

// query Quick check: does O=C1NC(Cc2ccc(C(=O)NCc3ccc(Cl)cc3)cc2)CO1 (stereo not given) have IC50 under 8 µM?
// result Not satisfied

// query API: query returns whether the compound falls strictly under 8 µM in IC50. Query: O=C(Cc1ccc(Cl)cc1)Nc1ccc(CC2COC(=O)N2)cc1 (racemic)
// result Satisfied

// query Consider the compound "O=C(Cc1ccc(Cl)cc1)Nc1ccc(C[C@@H]2COC(=O)N2)cc1" . Is its IC50 strictly less than 8 µM?
// result Satisfied

// query Input "COc1cc(NC(=O)Cc2ccc(C#N)cc2)ccc1C[C@H]1COC(=O)N1" ; condition: IC50 strictly below 8 µM. Does it hold?
// result Satisfied

// query IC50 under 8 µM? Item: CC(C(=O)Nc1ccc(C[C@H]2COC(=O)N2)cc1)c1ccc(Cl)cc1 (stereo not given in full)
// result Satisfied
